System: A498 renal
Experiment: NCI-60 one-dose screen, 48 h
Settings: 10 µM unless noted
Method: Growth inhibition of the A498 human tumor cell line is measured as a screen for anti-cancer activity. Cells are grown in 96 well plates and exposed to the test compound for 48 hours. Compounds are tested at a single concentration, which is 10^-5 M for most compounds. The reported endpoint is percent growth (GI% or GIPRCNT), where numbers from 0 - 100% represent growth inhibition, and numbers from -100% - 0 represent cell death. For example, a value of 40 represents 60% growth inhibition. […]
The panel holds about 83,000 compounds, 20% with a hit somewhere; the sample as a whole holds those more often. The source made the active and inactive calls. Rule for the calls: active = growth percent below 10; inactive = the rest.
Possible outcomes: active, inactive

Molecule | Cat
CCOC(=O)C1=C(C)n2nc(CC#N)c(C#N)c2NC1c1ccc(CC)cc1 (stereo not given) | inactive
CCCCc1nc(Cl)c(C2CC(c3ccc(Cl)cc3)=NN2c2cc(Cl)cc(Cl)c2)[nH]1 (stereo not given) | inactive
C#CCN1C(=O)c2ccccc2N(CC#C)C12CCN(Cc1cn(CC(=O)Nc3ccccc3C(N)=O)nn1)CC2 | inactive
O=C1NCc2ccc3c(-c4cccc(Cl)c4)c[nH]c3c21 | inactive
COc1ccc(-c2cc(-c3nnc(SCC(=O)Nc4ccc(/C(C)=N\O)cc4)n3-c3ccccc3)c3cc(OC)ccc3n2)cc1 | inactive
O=C(O)c1ccc(-n2cc(/C=N/Nc3ccc(Cl)cc3Cl)c(-c3ccccc3)n2)cc1 | inactive
O=C(CCc1nnc2sc(OCc3ccccc3)nn12)c1nc2ccc([N+](=O)[O-])cc2[nH]1 | inactive
c1ccc2nc(N3CCOCC3)c(N3CCCCC3)nc2c1 | inactive
CC(=O)c1cc2c(N)c(C(=O)Nc3ccccn3)sc2nc1C | inactive
Cc1cccc(NC(=O)c2sc3nc4c(cc3c2N)CN(Cc2ccccc2)CC4)c1C | active
CCOC(=O)c1c(C(F)(F)F)n([O-])c2ccc(Cl)cc2[n+]1=O | active
N#Cc1c(-c2ccc(F)cc2)nc(N=Nc2c(O)[nH]c3ccccc23)nc1N1CCOCC1 | inactive
C#Cc1ccccc1NC(=O)c1sc2nc3c(cc2c1N)CCCCCC3 | inactive
COc1ccc(-c2[nH]c3ccccc3c2C=C(C#N)C#N)cc1 | active
COc1cc(C2CC(c3ccc(Nc4nc(NCCO)nc(NCCO)n4)cc3)=NN2c2cc(Cl)cc(Cl)c2)cc(OC)c1OC (stereo not given) | inactive
Nc1c(C(=O)Nc2cccc3ccccc23)sc2nc3c(cc12)CCCCC3 | active
COC(=O)c1ccc2c(c1)NC(=O)[C@@H]1CCCN21 | inactive
N#C/C(=C/c1ccc(O)c([N+](=O)[O-])c1)c1nc(-c2ccc([N+](=O)[O-])cc2)cs1 | inactive
CCOCc1cc(C(C)(C)C)ccc1O | inactive
CN1CCN(S(=O)(=O)O[C@@H]2C(=O)N(c3cc4c5ccccc5ccc4c4ccccc34)[C@H]2c2ccc(F)cn2)CC1 | inactive

----------
System: MDA-MB-435 melanoma
Experiment: NCI-60 one-dose screen, 48 h
Details: 10 µM unless noted
The panel holds about 83,000 compounds, 20% with a hit somewhere; the sample as a whole holds those more often. Active and inactive are the calls of the source. The calls were made as follows: active = growth percent below 10; inactive = the rest.
Outcomes: YES = active, NO = inactive

Compound | Cat
CN1CCN(C(=O)[C@@]2(C)CC[C@]3(C)CC[C@]4(C)C(=CC[C@@H]5[C@@]6(C)CC[C@H](OC(=O)c7cccnc7)C(C)(C)[C@@H]6CC[C@]54C)[C@@H]3C2)CC1 | NO
Cn1c2c(c3ccc(-c4ccn[nH]4)cc3c1=O)C(=O)c1ccccc1-2 | NO
CC(=O)c1c(OCC#N)ccc2c(C)cc(=O)oc12 | NO
COC(=O)c1nc(-c2ccccc2)oc1S(=O)(=O)n1nc(-c2ccccc2)cc1N | NO
COc1ccc2[nH]c(-c3ccccc3)c(C=C(C#N)C#N)c2c1 | YES
O=C(/C(=C/c1ccc([N+](=O)[O-])cc1)SCc1ccc(F)cc1)c1ccc(Cl)cc1 | NO
O=c1[nH]nc(-c2ccccc2)c2sc(NC(=S)Nc3ccc(Cl)cc3)nc12 | NO
C(=C\c1cn(-c2ccccc2)nc1-c1ccccc1)/c1nnc(-c2c[nH]c3ccccc23)o1 | NO
CCOC(=O)NC(Cc1ccccc1)c1ccccc1 (configuration not stated) | NO
Cc1cccc2nc3c(n12)C(=O)C(=O)c1ccccc1-3 | YES
CCOC(=O)c1c(C)nc2c(c1N)/C(=C/c1ccc[nH]1)C(=O)N2Cc1ccc(C(F)(F)F)cc1 | NO
Cc1cc(O)cc(O)c1N=NC1=NCCS1 | NO
CC(C)Cc1cc(CNC(=O)C2[C@H]3CN(C(=O)c4ccccc4)C[C@@H]23)nn1-c1ccccc1 (some centres not stated) | NO
O=C1c2ccccc2C(=O)c2c1oc1c2c(=O)[nH]c2ccc(Cl)cc21 | NO
C=C(C)[C@@H]1CC[C@]2(C(=O)OCCOCCOCC[P+](c3ccccc3)(c3ccccc3)c3ccccc3)CC[C@]3(C)[C@H](CC[C@@H]4[C@@]5(C)CC[C@H](OC(=O)C(Cl)Cl)C(C)(C)[C@@H]5CC[C@]43C)[C@@H]12 | YES
Cc1cc2ccccc2c[n+]1CC(=O)c1ccc(-c2ccccc2)cc1 | NO
CCOC(=O)C1=C(C)n2nc(CC#N)c(C#N)c2NC1c1ccc(Cl)cc1 (configuration not stated) | NO
COc1ccc(-c2nc(C#N)c(NCC(c3ccc(Cl)cc3)N3CCCCC3)o2)cc1 (configuration not stated) | NO
C#Cc1cccc(Nc2ncnc3ccc(NC(=O)c4ccccc4)cc23)c1 | NO
Cc1nnc(/N=C2\NC(=O)/C(=C/c3ccsc3)S2)s1 | NO
CCCCc1nc(Cl)c(C2CC(c3ccc(Cl)cc3)=NN2c2cc(Cl)cc(Cl)c2)[nH]1 (configuration not stated) | NO
CCc1n(Cc2ccc3ccccc3c2)c2ccccc2[n+]1Cc1ccc2ccccc2c1 | NO
COc1cc(/C=C/C(=O)/C=C/c2cc3ccc(Cl)cc3n(Cc3ccccc3)c2=O)ccc1O | YES
C=C1C(=O)O[C@H]2[C@H]1CC/C(COC(=O)CCC(=O)OC/C1=C/CC[C@@]3(C)O[C@H]3[C@H]3OC(=O)C(=C)[C@@H]3CC1)=C\CC[C@@]1(C)O[C@@H]21 | NO
c1cc(CNC23CC4CC(CC(C4)C2)C3)cc(C[N+](Cc2cccc(CNC34CC5CC(CC(C5)C3)C4)c2)(Cc2cccc(CNC34CC5CC(CC(C5)C3)C4)c2)Cc2cccc(CNC34CC5CC(CC(C5)C3)C4)c2)c1 (configuration not stated) | NO
CCOC(=O)c1c(C)nc2c(c1N)/C(=C/c1cccs1)C(=O)N2c1ccc(OC)cc1 | NO
COc1cc([C@H](C)c2ccc3ccccc3c2)cc(OC)c1OC | YES
COc1ccccc1Nc1nnc(-c2ccc(Cl)cc2)o1 | YES
CCCCC1=c2c([nH]c3ccc(OC)cc23)=NC2C=CC=NC12 (configuration not stated) | NO
CS(=O)(=O)O[C@@H]1C(=O)N(c2cc3c4ccccc4ccc3c3ccccc23)[C@H]1c1ccc(F)cn1 | YES
O=c1nc(-c2ccccc2)c2cc(-c3ccc(N4CCCC4)nc3)ccc2[nH]1 | YES
C#CCOC(=O)[C@]1(C)CCC[C@]2(C)[C@H]3C[C@H]4C(C(C)C)=C[C@]3(CC[C@H]21)[C@@H]1C(=O)CCC(=O)[C@@H]14 | NO
Cc1ccc(C(=O)O)o1 | NO
Cc1ccc2nc3nc4ccc[nH]c4cc3c2c1 | NO
O=C(Nc1cc(Br)ccn1)c1cc2cc(Nc3nc(-c4ccccc4)nc4ccccc34)ccc2oc1=O | NO
CSc1nc(-c2cccs2)c2c(N)[nH]nc2n1 | NO
O=C(NC[C@H](O)CN1CCc2ccccc2C1)c1cc(NC2COC2)ncn1 | NO

----------
Tested on: RPMI-8226 leukemia
Test: NCI-60 one-dose screen, 48 h (100 = growth as untreated, 0 = no growth, -100 = all killed)
Conditions: 10 µM unless noted
Compounds without any hit were thinned out: in the full panel of roughly 83,000, 20% have a hit.

Smiles record | Value units | growth
Nn1c(SCC(=O)Nc2ccc(Cl)cc2)nnc1-c1cc(F)c(Cl)cc1Cl | % | 76.8
COC(=O)c1ccc2c(c1)NC(=O)[C@@H]1CCCN21 | % | 96.6
Cc1cc(C)cc(Nc2nccc(-c3c(-c4ccc(F)cc4)ncn3C3CCNCC3)n2)c1 | % | -3.31
COc1ccc(Cl)c([N+](=O)[O-])c1 | % | 106
COCCc1n(Cc2ccc3ccccc3c2)c2ccccc2[n+]1Cc1ccc2ccccc2c1 | % | -52.7
COc1cc(/C=C/C(=O)/C=C/c2cc3ccc(Cl)cc3[nH]c2=O)ccc1O | % | 4.64
C=C1C(=O)O[C@H]2[C@H]1CC/C(COC(=O)CCCCC(=O)OC/C1=C/CC[C@@]3(C)O[C@H]3[C@H]3OC(=O)C(=C)[C@@H]3CC1)=C\CC[C@@]1(C)O[C@@H]21 | % | 5.66
O=C(CCCC(=O)Nc1ccc(-n2nnc3cc(Cl)c(Cl)cc32)cc1)Nc1ccc(-n2nnc3cc(Cl)c(Cl)cc32)cc1 | % | 81.1
C=C1C(=O)O[C@H]2[C@H]1CC/C(COC(=O)c1cccnc1)=C\CC[C@@]1(C)O[C@@H]21 | % | 28.5
